- Test target: Fms(h) (Homo sapiens, UniProt P07333)
Quantity kind: IC50

Exam item: Specify the recorded IC50 for "COc1cc(OC)c(Cl)c(-c2ccc3c(NC(=O)c4ccc(N5CCNC(C)(C)C5)cc4)n[nH]c3n2)c1Cl" , system: Fms(h) (Homo sapiens, UniProt P07333).
Marked response: < 10 nM

====

- Test target: FGFR1(h) (Homo sapiens)
pIC50: −log10 of the molar value.
Quantity kind: pIC50

Exam item: Identify pIC50 associated with the compound COc1cc(OC)c(Cl)c(-c2ccc3c(NC(=O)c4ccc(N5CCNC(C)(C)C5)cc4)n[nH]c3n2)c1Cl [3D185]
Marked response: > 8.00

====

- Test target: UniProtKB P21802
Quantity kind: pIC50
Please treat pIC50 as minus the base-10 logarithm of the molar concentration.

Exam item: Identify pIC50 associated with the compound "COc1cc(OC)c(Cl)c(-c2ccc3c(NC(=O)c4ccc(N5CCNC(C)(C)C5)cc4)n[nH]c3n2)c1Cl"
Marked response: 8.89

====

- System: MCF-7
- Procedure details: Cell proliferation assay
- Assay type: cell-based
- Assay conditions: Homo sapiens, MCF7; Fig. 2G
pIC50: −log10 of the molar value.
Quantity kind: pIC50

Exam item: Specify the recorded pIC50 for "COc1cc(OC)c(Cl)c(-c2ccc3c(NC(=O)c4ccc(N5CCNC(C)(C)C5)cc4)n[nH]c3n2)c1Cl" , system: MCF-7.
Marked response: < 6.00

====

- Test target: FGFR3 (Homo sapiens, UniProt P22607)
- Construct: purchased Eurofins (Fremont, United States)
- Sequence (P22607 23-806): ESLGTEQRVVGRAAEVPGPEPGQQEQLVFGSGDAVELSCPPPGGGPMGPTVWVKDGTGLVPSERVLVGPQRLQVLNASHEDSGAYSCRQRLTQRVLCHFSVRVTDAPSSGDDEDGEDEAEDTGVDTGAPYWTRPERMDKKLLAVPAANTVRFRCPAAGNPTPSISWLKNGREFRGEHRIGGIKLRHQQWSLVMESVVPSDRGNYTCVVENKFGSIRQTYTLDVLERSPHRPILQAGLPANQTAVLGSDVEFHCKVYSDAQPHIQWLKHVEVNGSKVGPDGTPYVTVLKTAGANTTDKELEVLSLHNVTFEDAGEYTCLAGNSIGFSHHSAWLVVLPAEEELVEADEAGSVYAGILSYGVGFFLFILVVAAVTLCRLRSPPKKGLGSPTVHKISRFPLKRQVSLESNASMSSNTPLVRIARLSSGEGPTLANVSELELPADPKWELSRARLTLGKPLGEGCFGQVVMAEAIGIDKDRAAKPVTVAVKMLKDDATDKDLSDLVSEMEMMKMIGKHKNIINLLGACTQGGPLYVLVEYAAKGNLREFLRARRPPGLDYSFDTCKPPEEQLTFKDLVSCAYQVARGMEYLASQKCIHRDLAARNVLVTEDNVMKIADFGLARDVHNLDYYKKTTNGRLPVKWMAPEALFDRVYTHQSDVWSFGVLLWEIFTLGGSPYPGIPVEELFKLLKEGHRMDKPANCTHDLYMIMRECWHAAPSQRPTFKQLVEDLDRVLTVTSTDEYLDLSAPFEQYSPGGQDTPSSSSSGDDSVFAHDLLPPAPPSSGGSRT
- Procedure details: Kinase inhibition assay (ELISA)
- Format: biochemical
- Assay conditions: mean ± SD
Quantity kind: IC50 (nM)
Note: unit nM is implicit; provide only the numeric part.

Exam item: Identify IC50 associated with the molecule "COc1cc(OC)c(Cl)c(-c2ccc3c(NC(=O)c4ccc(N5CCNC(C)(C)C5)cc4)n[nH]c3n2)c1Cl"
Marked response: 3.6

====

- Test target: FGFR4 (Homo sapiens, UniProt P22455)
- Construct: purchased Eurofins (Fremont, United States)
- Sequence (P22455 22-802): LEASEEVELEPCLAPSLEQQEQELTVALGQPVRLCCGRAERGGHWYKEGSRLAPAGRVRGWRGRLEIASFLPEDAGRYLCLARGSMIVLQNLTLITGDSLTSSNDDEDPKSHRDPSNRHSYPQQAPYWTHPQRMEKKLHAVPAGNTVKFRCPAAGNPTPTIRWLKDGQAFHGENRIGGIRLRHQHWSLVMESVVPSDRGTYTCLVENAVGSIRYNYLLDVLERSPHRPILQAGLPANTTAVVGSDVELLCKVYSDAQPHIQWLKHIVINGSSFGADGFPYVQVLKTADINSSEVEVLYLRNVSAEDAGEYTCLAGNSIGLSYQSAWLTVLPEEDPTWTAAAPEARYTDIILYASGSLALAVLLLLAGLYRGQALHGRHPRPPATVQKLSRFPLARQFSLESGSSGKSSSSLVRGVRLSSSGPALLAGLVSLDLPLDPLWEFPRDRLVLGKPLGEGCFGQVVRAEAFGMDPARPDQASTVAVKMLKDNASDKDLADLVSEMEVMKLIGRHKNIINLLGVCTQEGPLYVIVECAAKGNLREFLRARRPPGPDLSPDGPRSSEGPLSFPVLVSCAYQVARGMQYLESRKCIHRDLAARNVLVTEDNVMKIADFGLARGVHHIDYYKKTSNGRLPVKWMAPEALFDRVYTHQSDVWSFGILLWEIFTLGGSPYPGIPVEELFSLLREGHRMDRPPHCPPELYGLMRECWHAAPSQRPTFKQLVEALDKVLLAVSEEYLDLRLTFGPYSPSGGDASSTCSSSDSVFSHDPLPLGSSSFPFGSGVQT
- Procedure details: Kinase inhibition assay (ELISA)
- Assay type: biochemical
- Assay conditions: mean ± SD
Quantity kind: IC50 (nM)
Note: unit nM is implicit; provide only the numeric part.

Exam item: Identify IC50 associated with the molecule COc1cc(OC)c(Cl)c(-c2ccc3c(NC(=O)c4ccc(N5CCNC(C)(C)C5)cc4)n[nH]c3n2)c1Cl [3D185]
Marked response: 51.4

====

- Test target: FGFR1(V561M)(h) (Homo sapiens, UniProt P11362, V561M)
- Procedure details: Eurofins kinase panel
- Assay conditions: estimated from 372-kinase panel
Quantity kind: IC50

Exam item: Identify IC50 associated with the molecule "COc1cc(OC)c(Cl)c(-c2ccc3c(NC(=O)c4ccc(N5CCNC(C)(C)C5)cc4)n[nH]c3n2)c1Cl"
Marked response: < 10 nM

====

- Tested on: NCI-H1975
- Procedure details: Cell proliferation assay
- Type: cell-based
- Assay conditions: Homo sapiens, Fig. 2G
pIC50: −log10 of the molar value.
Quantity kind: pIC50

Exam item: Identify pIC50 associated with the compound "COc1cc(OC)c(Cl)c(-c2ccc3c(NC(=O)c4ccc(N5CCNC(C)(C)C5)cc4)n[nH]c3n2)c1Cl"
Marked response: < 6.00

====

- Test target: VEGFR2 (KDR) (Homo sapiens)
- Sequence (P35968 20-1356): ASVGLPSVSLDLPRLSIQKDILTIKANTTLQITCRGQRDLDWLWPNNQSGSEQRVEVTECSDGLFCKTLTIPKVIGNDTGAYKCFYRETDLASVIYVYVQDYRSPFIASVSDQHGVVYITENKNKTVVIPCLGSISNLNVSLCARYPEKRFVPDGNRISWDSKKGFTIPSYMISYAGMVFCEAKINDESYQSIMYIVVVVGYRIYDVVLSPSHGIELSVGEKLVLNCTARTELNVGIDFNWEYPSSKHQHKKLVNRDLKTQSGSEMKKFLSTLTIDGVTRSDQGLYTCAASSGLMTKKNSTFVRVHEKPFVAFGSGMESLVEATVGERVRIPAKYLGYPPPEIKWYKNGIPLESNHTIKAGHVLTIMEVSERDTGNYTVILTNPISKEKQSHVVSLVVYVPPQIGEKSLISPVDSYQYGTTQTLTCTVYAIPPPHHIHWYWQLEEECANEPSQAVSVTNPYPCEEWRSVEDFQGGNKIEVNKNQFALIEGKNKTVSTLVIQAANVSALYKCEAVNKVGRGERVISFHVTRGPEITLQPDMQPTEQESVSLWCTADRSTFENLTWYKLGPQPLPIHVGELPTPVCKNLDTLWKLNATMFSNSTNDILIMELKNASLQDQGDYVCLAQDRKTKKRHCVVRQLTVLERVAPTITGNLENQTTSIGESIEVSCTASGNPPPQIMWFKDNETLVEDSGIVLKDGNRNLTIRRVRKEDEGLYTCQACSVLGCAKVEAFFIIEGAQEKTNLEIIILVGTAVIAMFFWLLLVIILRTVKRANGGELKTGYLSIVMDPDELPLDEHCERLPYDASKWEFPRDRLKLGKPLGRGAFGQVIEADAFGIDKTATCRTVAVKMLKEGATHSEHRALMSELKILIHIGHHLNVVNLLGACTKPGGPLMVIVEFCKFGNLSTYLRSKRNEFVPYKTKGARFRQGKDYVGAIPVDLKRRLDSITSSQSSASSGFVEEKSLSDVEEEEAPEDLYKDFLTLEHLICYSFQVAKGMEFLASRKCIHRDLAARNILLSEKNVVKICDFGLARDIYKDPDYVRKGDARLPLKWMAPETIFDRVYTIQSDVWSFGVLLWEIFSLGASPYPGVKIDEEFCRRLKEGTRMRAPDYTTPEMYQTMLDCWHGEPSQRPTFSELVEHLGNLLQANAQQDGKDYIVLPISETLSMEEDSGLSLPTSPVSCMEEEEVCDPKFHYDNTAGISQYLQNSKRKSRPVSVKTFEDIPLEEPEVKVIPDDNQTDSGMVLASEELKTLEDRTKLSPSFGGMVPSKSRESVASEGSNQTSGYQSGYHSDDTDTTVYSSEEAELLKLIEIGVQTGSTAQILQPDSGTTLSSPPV
Quantity kind: IC50 (nM)
Note: unit nM is implicit; provide only the numeric part.

Exam item: Specify the recorded IC50 for COc1cc(OC)c(Cl)c(-c2ccc3c(NC(=O)c4ccc(N5CCNC(C)(C)C5)cc4)n[nH]c3n2)c1Cl [3D185] , system: VEGFR2 (KDR) (Homo sapiens).
Marked response: 382

====

Reported pIC50 values follow for various molecules
- Tested on: BMDM (CSF-2)
- Procedure details: Macrophage survival (CCK-8)
- Assay type: cell-based, murine
- Assay conditions: Mus musculus, BMDM, 168 h; 7 days
- Experimental: Murine bone marrow-derived macrophages (BMDMs) and PBMCs were used for cell viability studies. BMDMs were harvested by flushing the tibias and femurs of 6- to 8-week-old C57BL/6 mice and depleting red blood cells (RBCs) by RBC lysis (Biogems). […] Cell viability was measured using the CCK-8 assay. For IL-4/IL-13-induced macrophage survival analysis, viable cells were counted by trypan blue exclusion.
pIC50: −log10 of the molar value.

COc1cc(OC)c(Cl)c(-c2ccc3c(NC(=O)c4ccc(N5CCNC(C)(C)C5)cc4)n[nH]c3n2)c1Cl [3D185] :: < 6.00

Then this molecule:
Exam item: Identify pIC50 associated with the molecule FC(F)(F)c1ccc(CNc2ccc(Cc3c[nH]c4ncc(Cl)cc34)cn2)cn1 [PLX3397, reference compound]
Marked response: < 6.00

====

- Test system: NCI-H520
- Procedure details: Cell proliferation assay
- Assay type: cell-based
- Assay conditions: Homo sapiens, Fig. 2G
Quantity kind: IC50

Exam item: Identify IC50 associated with the molecule "COc1cc(OC)c(Cl)c(-c2ccc3c(NC(=O)c4ccc(N5CCNC(C)(C)C5)cc4)n[nH]c3n2)c1Cl"
Marked response: > 1000 nM

====

- Test system: VEGF-induced primary HUVECs
- Procedure details: VEGF-induced HUVEC proliferation (CCK-8)
- Type: cell-based
- Assay conditions: Homo sapiens, VEGF 100 ng/mL, 48 h
Quantity kind: pIC50
Please treat pIC50 as minus the base-10 logarithm of the molar concentration.

Exam item: Identify pIC50 associated with the compound "COc1cc(OC)c(Cl)c(-c2ccc3c(NC(=O)c4ccc(N5CCNC(C)(C)C5)cc4)n[nH]c3n2)c1Cl"
Marked response: 7.06

====

- Test target: VEGFR3 (Homo sapiens, UniProt P35916)
pIC50: −log10 of the molar value.
Quantity kind: pIC50

Exam item: Identify pIC50 associated with the molecule COc1cc(OC)c(Cl)c(-c2ccc3c(NC(=O)c4ccc(N5CCNC(C)(C)C5)cc4)n[nH]c3n2)c1Cl [3D185]
Marked response: < 6.00

====

- System: A375
- Procedure details: Cell proliferation assay
- Format: cell-based
- Assay conditions: Homo sapiens, A-375; Fig. 2G
Quantity kind: IC50

Exam item: Identify IC50 associated with the compound COc1cc(OC)c(Cl)c(-c2ccc3c(NC(=O)c4ccc(N5CCNC(C)(C)C5)cc4)n[nH]c3n2)c1Cl [3D185]
Marked response: > 1 µM

====

- Test target: FGFR2(N549H)(h) (Homo sapiens, UniProt P21802, N549H)
- Sequence (P21802 22-821 N549H): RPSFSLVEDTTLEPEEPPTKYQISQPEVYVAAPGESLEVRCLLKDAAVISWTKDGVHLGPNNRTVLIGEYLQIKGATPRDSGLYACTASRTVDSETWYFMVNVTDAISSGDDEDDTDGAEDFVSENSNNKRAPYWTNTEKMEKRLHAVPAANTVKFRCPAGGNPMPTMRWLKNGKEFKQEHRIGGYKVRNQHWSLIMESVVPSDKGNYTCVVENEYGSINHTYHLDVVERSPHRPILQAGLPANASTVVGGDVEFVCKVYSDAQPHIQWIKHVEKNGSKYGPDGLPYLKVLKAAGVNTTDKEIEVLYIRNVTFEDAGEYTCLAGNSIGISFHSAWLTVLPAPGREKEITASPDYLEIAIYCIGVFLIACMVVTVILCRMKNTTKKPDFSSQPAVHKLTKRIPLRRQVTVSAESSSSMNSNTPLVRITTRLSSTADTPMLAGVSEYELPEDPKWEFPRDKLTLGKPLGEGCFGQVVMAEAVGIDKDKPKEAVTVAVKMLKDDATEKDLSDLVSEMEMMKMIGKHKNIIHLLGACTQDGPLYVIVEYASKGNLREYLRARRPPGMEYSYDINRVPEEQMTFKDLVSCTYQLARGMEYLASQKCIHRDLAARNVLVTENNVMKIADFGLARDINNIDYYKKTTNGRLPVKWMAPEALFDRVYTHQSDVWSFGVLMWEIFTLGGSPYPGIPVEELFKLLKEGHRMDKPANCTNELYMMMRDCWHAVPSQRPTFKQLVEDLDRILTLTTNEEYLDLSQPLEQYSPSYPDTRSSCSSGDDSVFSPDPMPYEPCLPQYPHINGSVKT
- Procedure details: Eurofins kinase panel
- Assay conditions: estimated from 372-kinase panel
Quantity kind: IC50

Exam item: Identify IC50 associated with the compound "COc1cc(OC)c(Cl)c(-c2ccc3c(NC(=O)c4ccc(N5CCNC(C)(C)C5)cc4)n[nH]c3n2)c1Cl"
Marked response: < 10 nM

====

- Test target: CSF-1R (Homo sapiens, UniProt P07333)
Quantity kind: IC50
// unit must come after the numeric part

Exam item: Specify the recorded IC50 for COc1cc(OC)c(Cl)c(-c2ccc3c(NC(=O)c4ccc(N5CCNC(C)(C)C5)cc4)n[nH]c3n2)c1Cl [3D185] , system: CSF-1R (Homo sapiens, UniProt P07333).
Marked response: 3.8 nM

====

- System: MKN45
- Procedure details: Cell proliferation assay
- Assay type: cell-based
- Assay conditions: Homo sapiens, MKN-45; Fig. 2G
Quantity kind: IC50

Exam item: Identify IC50 associated with the compound "COc1cc(OC)c(Cl)c(-c2ccc3c(NC(=O)c4ccc(N5CCNC(C)(C)C5)cc4)n[nH]c3n2)c1Cl"
Marked response: > 1000 nM

====

- Test target: VEGFR1 (Homo sapiens, UniProt P17948)
pIC50: −log10 of the molar value.
Quantity kind: pIC50

Exam item: Identify pIC50 associated with the compound "COc1cc(OC)c(Cl)c(-c2ccc3c(NC(=O)c4ccc(N5CCNC(C)(C)C5)cc4)n[nH]c3n2)c1Cl"
Marked response: < 6.00

====

- Test target: FGFR1 (Homo sapiens, UniProt P11362)
- Sequence (P11362 22-822): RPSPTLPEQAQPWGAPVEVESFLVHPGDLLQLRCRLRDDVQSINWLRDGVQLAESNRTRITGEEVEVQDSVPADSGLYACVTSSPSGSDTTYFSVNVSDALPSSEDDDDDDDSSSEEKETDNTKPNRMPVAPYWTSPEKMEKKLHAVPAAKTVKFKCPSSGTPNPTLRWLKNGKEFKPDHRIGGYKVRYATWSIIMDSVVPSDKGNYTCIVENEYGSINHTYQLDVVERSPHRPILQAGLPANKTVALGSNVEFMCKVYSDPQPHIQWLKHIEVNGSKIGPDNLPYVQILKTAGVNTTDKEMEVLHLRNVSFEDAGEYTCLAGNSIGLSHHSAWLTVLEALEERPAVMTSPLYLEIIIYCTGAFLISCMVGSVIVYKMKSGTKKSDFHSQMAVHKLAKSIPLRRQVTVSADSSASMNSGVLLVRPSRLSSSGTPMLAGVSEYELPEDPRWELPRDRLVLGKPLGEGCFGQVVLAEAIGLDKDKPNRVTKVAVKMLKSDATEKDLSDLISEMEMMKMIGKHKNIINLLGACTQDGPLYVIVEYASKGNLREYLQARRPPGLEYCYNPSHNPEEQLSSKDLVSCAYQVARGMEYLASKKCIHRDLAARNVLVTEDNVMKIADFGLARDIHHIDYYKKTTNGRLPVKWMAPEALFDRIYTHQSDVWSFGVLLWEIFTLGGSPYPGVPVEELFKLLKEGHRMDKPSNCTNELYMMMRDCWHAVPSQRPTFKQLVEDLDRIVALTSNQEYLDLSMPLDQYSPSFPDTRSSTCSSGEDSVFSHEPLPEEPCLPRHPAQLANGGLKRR
Quantity kind: IC50 (nM)
Note: unit nM is implicit; provide only the numeric part.

Exam item: Specify the recorded IC50 for "COc1cc(OC)c(Cl)c(-c2ccc3c(NC(=O)c4ccc(N5CCNC(C)(C)C5)cc4)n[nH]c3n2)c1Cl" , system: FGFR1 (Homo sapiens, UniProt P11362).
Marked response: 0.5

====

- Tested on: NCI-H716
- Procedure details: Cell proliferation assay
- Format: cell-based, human
- Assay conditions: Homo sapiens, NCI-H716; 72 h, mean ± SD
- Method: The cancer cell lines indicated in Figure 3 were seeded in 96-well plates at a low density in growth medium. […] Finally, cell proliferation was determined using a sulforhodamine B (SRB) assay or a cell counting kit-8 (CCK-8) assay. […] IC50 values for proliferation curves were calculated using a 4-parameter logistic nonlinear regression model with SoftMax Pro Software (Molecular Devices, San Jose, USA).
Quantity kind: pIC50
Please treat pIC50 as minus the base-10 logarithm of the molar concentration.

Exam item: Identify pIC50 associated with the molecule "COc1cc(OC)c(Cl)c(-c2ccc3c(NC(=O)c4ccc(N5CCNC(C)(C)C5)cc4)n[nH]c3n2)c1Cl"
Marked response: 8.52
